ASSAY: Solid stability test of the crystal forms (influence factors and acceleration tests; appearance, XRPD, HPLC content and impurities)
Format: physicochemical
MEASUREMENT PARAMETERS: High temperature (60° C., open), 10 days
Each item that follows carries a reported Content (%).
ASSAY ENDPOINT: Content (%)

COMPOUND | RESULT VALUE
C=CC(=O)N[C@H]1COC[C@H]1Nc1ncc(/C=C(\F)c2c(Cl)c(OC)cc(OC)c2Cl)cn1 [Crystal Form D] | 99.32
C=CC(=O)N[C@H]1COC[C@H]1Nc1ncc(/C=C(\F)c2c(Cl)c(OC)cc(OC)c2Cl)cn1.CS(=O)(=O)O [Crystal Form E] | 100.37
C=CC(=O)N[C@H]1COC[C@H]1Nc1ncc(/C=C(\F)c2c(Cl)c(OC)cc(OC)c2Cl)cn1.CS(=O)(=O)O [Crystal Form F] | 99.22
C=CC(=O)N[C@H]1COC[C@H]1Nc1ncc(/C=C(\F)c2c(Cl)c(OC)cc(OC)c2Cl)cn1 [Crystal Form A] | 99.06
C=CC(=O)N[C@H]1COC[C@H]1Nc1ncc(/C=C(\F)c2c(Cl)c(OC)cc(OC)c2Cl)cn1 [Crystal Form B] | 100.74
C=CC(=O)N[C@H]1COC[C@H]1Nc1ncc(/C=C(\F)c2c(Cl)c(OC)cc(OC)c2Cl)cn1 [Crystal Form C] | 98.93

---

ASSAY: Solid stability test of the crystal forms (influence factors and acceleration tests; appearance, XRPD, HPLC content and impurities)
Format: physicochemical
MEASUREMENT PARAMETERS: conclusion of influence factors and acceleration tests
ASSAY ENDPOINT: thermal stability (high temperature), conclusion in words

COMPOUND | RESULT VALUE
C=CC(=O)N[C@H]1COC[C@H]1Nc1ncc(/C=C(\F)c2c(Cl)c(OC)cc(OC)c2Cl)cn1.CS(=O)(=O)O [Crystal Form E] | superior
C=CC(=O)N[C@H]1COC[C@H]1Nc1ncc(/C=C(\F)c2c(Cl)c(OC)cc(OC)c2Cl)cn1 [Crystal Form B] | superior
C=CC(=O)N[C@H]1COC[C@H]1Nc1ncc(/C=C(\F)c2c(Cl)c(OC)cc(OC)c2Cl)cn1 [Crystal Form C] | good
C=CC(=O)N[C@H]1COC[C@H]1Nc1ncc(/C=C(\F)c2c(Cl)c(OC)cc(OC)c2Cl)cn1 [Crystal Form D] | good

---

ASSAY: Solid stability test of the crystal forms (influence factors and acceleration tests; appearance, XRPD, HPLC content and impurities)
Type: physicochemical
MEASUREMENT PARAMETERS: Light radiation (total illumination: 1.2 × 10^6 Lux·hr), 5 days
ASSAY ENDPOINT: Appearance

COMPOUND | ASSAY ENDPOINT | RESULT VALUE
C=CC(=O)N[C@H]1COC[C@H]1Nc1ncc(/C=C(\F)c2c(Cl)c(OC)cc(OC)c2Cl)cn1 [Crystal Form C] | Appearance | Off-white
C=CC(=O)N[C@H]1COC[C@H]1Nc1ncc(/C=C(\F)c2c(Cl)c(OC)cc(OC)c2Cl)cn1.CS(=O)(=O)O [Crystal Form F] | Appearance | White
C=CC(=O)N[C@H]1COC[C@H]1Nc1ncc(/C=C(\F)c2c(Cl)c(OC)cc(OC)c2Cl)cn1 [Crystal Form A] | Appearance | Off-white
C=CC(=O)N[C@H]1COC[C@H]1Nc1ncc(/C=C(\F)c2c(Cl)c(OC)cc(OC)c2Cl)cn1 [Crystal Form D] | Appearance | Off-white

---

ASSAY: Solid stability test of the crystal forms (influence factors and acceleration tests; appearance, XRPD, HPLC content and impurities)
Assay type: physicochemical
MEASUREMENT PARAMETERS: High temperature (60° C., open), 10 days
Each item that follows carries a reported Total Impurities (%).

COMPOUND | Total Impurities (%)
C=CC(=O)N[C@H]1COC[C@H]1Nc1ncc(/C=C(\F)c2c(Cl)c(OC)cc(OC)c2Cl)cn1 [Crystal Form B] | 0.42
C=CC(=O)N[C@H]1COC[C@H]1Nc1ncc(/C=C(\F)c2c(Cl)c(OC)cc(OC)c2Cl)cn1.CS(=O)(=O)O [Crystal Form E] | 0.50
C=CC(=O)N[C@H]1COC[C@H]1Nc1ncc(/C=C(\F)c2c(Cl)c(OC)cc(OC)c2Cl)cn1 [Crystal Form C] | 1.27
C=CC(=O)N[C@H]1COC[C@H]1Nc1ncc(/C=C(\F)c2c(Cl)c(OC)cc(OC)c2Cl)cn1.CS(=O)(=O)O [Crystal Form F] | 0.79
C=CC(=O)N[C@H]1COC[C@H]1Nc1ncc(/C=C(\F)c2c(Cl)c(OC)cc(OC)c2Cl)cn1 [Crystal Form A] | 1.18
C=CC(=O)N[C@H]1COC[C@H]1Nc1ncc(/C=C(\F)c2c(Cl)c(OC)cc(OC)c2Cl)cn1 [Crystal Form D] | 0.94

---

ASSAY: Solid stability test of the crystal forms (influence factors and acceleration tests; appearance, XRPD, HPLC content and impurities)
Type: physicochemical
MEASUREMENT PARAMETERS: High humidity (room temperature/relative humidity of 92.5%, open), 10 days

COMPOUND | Content (%)
C=CC(=O)N[C@H]1COC[C@H]1Nc1ncc(/C=C(\F)c2c(Cl)c(OC)cc(OC)c2Cl)cn1 [Crystal Form D] | 99.36
C=CC(=O)N[C@H]1COC[C@H]1Nc1ncc(/C=C(\F)c2c(Cl)c(OC)cc(OC)c2Cl)cn1 [Crystal Form C] | 98.22
C=CC(=O)N[C@H]1COC[C@H]1Nc1ncc(/C=C(\F)c2c(Cl)c(OC)cc(OC)c2Cl)cn1 [Crystal Form B] | 101.03
C=CC(=O)N[C@H]1COC[C@H]1Nc1ncc(/C=C(\F)c2c(Cl)c(OC)cc(OC)c2Cl)cn1.CS(=O)(=O)O [Crystal Form E] | 101.24
C=CC(=O)N[C@H]1COC[C@H]1Nc1ncc(/C=C(\F)c2c(Cl)c(OC)cc(OC)c2Cl)cn1 [Crystal Form A] | 98.85
C=CC(=O)N[C@H]1COC[C@H]1Nc1ncc(/C=C(\F)c2c(Cl)c(OC)cc(OC)c2Cl)cn1.CS(=O)(=O)O [Crystal Form F] | 99.24

---

ASSAY: Solid stability test of the crystal forms (influence factors and acceleration tests; appearance, XRPD, HPLC content and impurities)
Format: physicochemical
MEASUREMENT PARAMETERS: High temperature (60° C., open), 10 days

COMPOUND | Appearance
C=CC(=O)N[C@H]1COC[C@H]1Nc1ncc(/C=C(\F)c2c(Cl)c(OC)cc(OC)c2Cl)cn1 [Crystal Form C] | Off-white
C=CC(=O)N[C@H]1COC[C@H]1Nc1ncc(/C=C(\F)c2c(Cl)c(OC)cc(OC)c2Cl)cn1 [Crystal Form B] | Off-white
C=CC(=O)N[C@H]1COC[C@H]1Nc1ncc(/C=C(\F)c2c(Cl)c(OC)cc(OC)c2Cl)cn1 [Crystal Form A] | Off-white
C=CC(=O)N[C@H]1COC[C@H]1Nc1ncc(/C=C(\F)c2c(Cl)c(OC)cc(OC)c2Cl)cn1.CS(=O)(=O)O [Crystal Form E] | White
C=CC(=O)N[C@H]1COC[C@H]1Nc1ncc(/C=C(\F)c2c(Cl)c(OC)cc(OC)c2Cl)cn1 [Crystal Form D] | Off-white
C=CC(=O)N[C@H]1COC[C@H]1Nc1ncc(/C=C(\F)c2c(Cl)c(OC)cc(OC)c2Cl)cn1.CS(=O)(=O)O [Crystal Form F] | White

---

ASSAY: Solubility test in biological media (FaSSIF, FeSSIF, SGF) and water, 37° C.
Type: physicochemical
MEASUREMENT PARAMETERS: SGF (FaSSGF), pH 1.8, simulated gastric fluid, thermodynamic from solid; SGF, 37° C., 24 hours; salt forms converted to salt concentrations; read-out: Solubility (mg/mL) 24 hours
Protocol: Step 1: Preparation of Control Solutions (0.2 mg/mL, calculated by free base) 2 mg the crystal form B of the compound represented by formula (I) (or 2.4 mg the crystal form E of the compound represented by formula (II)) as a control was precisely weighed and placed into a 40 mL glass vial, and a diluent (10 mL) was precisely added. The reaction solution was subjected to ultrasonic treatment for 20 min to sufficiently dissolve, then cooled to room temperature and shaked well. […]

COMPOUND | solubility at 24 h (mg/mL)
C=CC(=O)N[C@H]1COC[C@H]1Nc1ncc(/C=C(\F)c2c(Cl)c(OC)cc(OC)c2Cl)cn1 [Crystal Form B] | 0.014
C=CC(=O)N[C@H]1COC[C@H]1Nc1ncc(/C=C(\F)c2c(Cl)c(OC)cc(OC)c2Cl)cn1.O=S(=O)(O)O | 0.045
C=CC(=O)N[C@H]1COC[C@H]1Nc1ncc(/C=C(\F)c2c(Cl)c(OC)cc(OC)c2Cl)cn1.CS(=O)(=O)O [Crystal Form E] | 0.041

---

ASSAY: Solid stability test of the crystal forms (influence factors and acceleration tests; appearance, XRPD, HPLC content and impurities)
Assay type: physicochemical
MEASUREMENT PARAMETERS: conclusion of influence factors and acceleration tests
From the text: A sample of the crystal form A was placed on the bottom of a glass sample bottle, and spread to a thin layer. […] Samples were taken and analyzed at various time points, and the test results were compared with the initial test results of 0 day, the inspection items included appearance, content and impurities, and the test results are shown in Table 9. […]
ASSAY ENDPOINT: photostability (stability under light radiation), conclusion in words

COMPOUND | RESULT VALUE
C=CC(=O)N[C@H]1COC[C@H]1Nc1ncc(/C=C(\F)c2c(Cl)c(OC)cc(OC)c2Cl)cn1.CS(=O)(=O)O [Crystal Form F] | good
C=CC(=O)N[C@H]1COC[C@H]1Nc1ncc(/C=C(\F)c2c(Cl)c(OC)cc(OC)c2Cl)cn1 [Crystal Form D] | good
